Experiment: Solubility test (1% DMSO addition, pH 6.8 artificial intestinal juice)
Format: physicochemical
Details: kinetic from dmso stock, 16 hours at 25° C.
Description: The solubility of the compound of the present invention was determined under 1% DMSO addition conditions. 10 mmol/L solution of the compound was prepared with DMSO, and 6 μL of the solution of the compound of the present invention was added to 594 μL of pH 6.8 artificial intestinal juice (118 mL of 0.2 mol/L NaOH test solution and water were added to 250 mL of 0.2 mol/L potassium dihydrogen phosphate test solution to reach 1000 mL). […]
Assignment: determine reported solubility at 16 h for the given compounds.

Look over these answered cases.
[[record]]
compound_smiles = "CS(=O)(=O)CC(=O)Nc1c(-c2ccc(F)c(F)c2)nn2c1C(=O)N[C@@]1(CCc3cc(F)cc(F)c31)C2"
reading = "> 50 µM"

[[record]]
compound_smiles = "CS(=O)(=O)CC(=O)Nc1c(-c2ccc(F)cc2)nn2c1C(=O)N[C@]1(CCc3cc(OCC(F)(F)F)ccc31)C2"
reading = "> 50 µM"

[[record]]
compound_smiles = "CS(=O)(=O)CC(=O)Nc1c(-c2ccc(Cl)cn2)nn2c1C(=O)N[C@@]1(CCOc3cc(F)cc(F)c31)C2"
reading = "> 50 µM"


Fill in solubility at 16 h for each of the 2 compounds listed.
1. CS(=O)(=O)CC(=O)Nc1c(-c2ccc(C3CC3)cn2)nn2c1C(=O)N[C@@]1(CCc3cc(F)cc(F)c31)C2
2. CS(=O)(=O)CC(=O)Nc1c(CCC2CC2)nn2c1C(=O)N[C@@]1(CCc3cc(OCC(F)(F)F)ccc31)C2

A:
["48.9 µM", "> 50 µM"]
